Ref: patent US11046672B2

- methodNotes: Pharmacokinetic measurements in mice (intravenous and intra-nasal dosing)
- Format: in vivo
- cond: male, C57BL/6J, lung, other: intra-nasal; mouse, i.n. dosing, 1.5 h, mean; read-out: lung concentration (nM) at time (h)
Assign concentration at 1.5 h to each entry below.
Numbers only; they are read as nM.

INPUT: I would be grateful if you could share the reported concentration at 1.5 h for COC(=O)c1cc2c(cc1C)/C(=C(/Nc1ccc(C(=O)NOCCN3CCN(C)CC3)cc1)c1ccccc1)C(=O)N2 [Example 6] .
OUTPUT: 986

INPUT: I would be grateful if you could share the reported concentration at 1.5 h for COC(=O)c1cc2c(cc1C)/C(=C(/Nc1ccc(C(=O)NOCCN(C)C)c(C)c1)c1ccccc1)C(=O)N2 [Example 5] .
OUTPUT: 1730

INPUT: I would be grateful if you could share the reported concentration at 1.5 h for COC(=O)c1ccc2c(c1)NC(=O)/C2=C(\Nc1ccc(N(C)C(=O)CN2CCN(C)CC2)cc1)c1ccccc1 [Nintedanib, reference compound] .
OUTPUT: 804

====

- methodNotes: Pharmacokinetic measurements in mice (intravenous and intra-nasal dosing)
- Format: in vivo
- cond: male, C57BL/6J, lung/plasma, iv, 0.2 mg/kg; mouse, i.v. dosing, 6 h; read-out: lung/plasma ratio at time(h)
Assign Kp at 6 h to each entry below.
Give the figure by itself; no unit, no explanation.

INPUT: I would be grateful if you could share the reported Kp at 6 h for COC(=O)c1cc2c(cc1C)/C(=C(/Nc1ccc(C(=O)NOCCN(C)C)c(C)c1)c1ccccc1)C(=O)N2 [Example 5] .
OUTPUT: 152

INPUT: I would be grateful if you could share the reported Kp at 6 h for COC(=O)c1cc2c(cc1C)/C(=C(/Nc1ccc(C(=O)NOCCN3CCN(C)CC3)cc1)c1ccccc1)C(=O)N2 [Example 6] .
OUTPUT: 65

====

- Test system: MRC5 cells
- methodNotes: Cell viability assay in MRC5 cells (MTT)
- cond: 1000 nM
quantityKind: Cell viability at 1000 nM (%)
Numbers only; they are read as %.

INPUT: I would be grateful if you could share the reported Cell viability at 1000 nM (%) for `COC(=O)c1ccc2c(c1)NC(=O)/C2=C(\Nc1ccc(C(=O)NOCCN2CC[C@H](N(C)C)C2)cc1)c1ccccc1` .
OUTPUT: 93

INPUT: I would be grateful if you could share the reported Cell viability at 1000 nM (%) for `COC(=O)c1ccc2c(c1)NC(=O)/C2=C(\Nc1ccc(C(=O)NOCCN2[C@H](C)CCC[C@@H]2C)cc1)c1ccccc1` .
OUTPUT: 109.8

INPUT: I would be grateful if you could share the reported Cell viability at 1000 nM (%) for `COC(=O)c1cc2c(cc1C)/C(=C(/Nc1ccc(C(=O)NOCCCN(C)C)c(C)c1)c1ccccc1)C(=O)N2` .
OUTPUT: 91.8

INPUT: I would be grateful if you could share the reported Cell viability at 1000 nM (%) for `COC(=O)c1ccc2c(c1)NC(=O)/C2=C(\Nc1ccc(C(=O)NOCCN2CCOCC2)cc1)c1ccccc1` .
OUTPUT: 79.4

INPUT: I would be grateful if you could share the reported Cell viability at 1000 nM (%) for `COC(=O)c1ccc2c(c1)NC(=O)/C2=C(\Nc1ccc(S(=O)(=O)NOCCN(C)C)cc1)c1ccccc1` .
OUTPUT: 97.5

INPUT: I would be grateful if you could share the reported Cell viability at 1000 nM (%) for `COC(=O)c1ccc2c(c1)NC(=O)/C2=C(\Nc1ccc(C(=O)NOCCN2CCC(O)CC2)cc1)c1ccccc1` .
OUTPUT: 110.5

INPUT: I would be grateful if you could share the reported Cell viability at 1000 nM (%) for `COC(=O)c1cc2c(cc1C)/C(=C(/Nc1ccc(S(=O)(=O)NOCCN(C)C)cc1)c1ccccc1)C(=O)N2` .
OUTPUT: 103.5

INPUT: I would be grateful if you could share the reported Cell viability at 1000 nM (%) for `COC(=O)c1cc2c(cc1C)/C(=C(/Nc1ccc(C(=O)NOCCN3CCN(C)CC3)c(F)c1)c1ccccc1)C(=O)N2` .
OUTPUT: 66.3

INPUT: I would be grateful if you could share the reported Cell viability at 1000 nM (%) for `COC(=O)c1cc2c(cc1C)/C(=C(/Nc1ccc(C(=O)N(C)OCCN3CCN[C@H](C)C3)cc1)c1ccccc1)C(=O)N2` .
OUTPUT: 70.5

INPUT: I would be grateful if you could share the reported Cell viability at 1000 nM (%) for `COC(=O)c1cc2c(cc1C)/C(=C(/Nc1ccc(C(=O)N(OCCN3CCNCC3)C(C)C)cc1)c1ccccc1)C(=O)N2` .
OUTPUT: 74.0

INPUT: I would be grateful if you could share the reported Cell viability at 1000 nM (%) for `COC(=O)c1ccc2c(c1)NC(=O)/C2=C(\Nc1ccc(C(=O)NOCCN2CCN(C)CC2)c(F)c1)c1ccccc1` .
OUTPUT: 91.3

INPUT: I would be grateful if you could share the reported Cell viability at 1000 nM (%) for `COC(=O)c1ccc2c(c1)NC(=O)/C2=C(\Nc1ccc(C(=O)NOCCN2CCC(C#N)CC2)cc1)c1ccccc1` .
OUTPUT: 83.9

INPUT: I would be grateful if you could share the reported Cell viability at 1000 nM (%) for `COC(=O)c1cc2c(cc1C)/C(=C(/Nc1ccc(C(=O)NOCCCN3CCN(C)CC3)cc1)c1ccccc1)C(=O)N2` .
OUTPUT: 73.7

INPUT: I would be grateful if you could share the reported Cell viability at 1000 nM (%) for `COC(=O)c1cc2c(cc1C)/C(=C(/Nc1ccc(C(=O)NOCCN3CCN(CCO)CC3)cc1)c1ccccc1)C(=O)N2` .
OUTPUT: 86.8
